system: MOLT-4; assay: […] in human MOLT4 cells after 24 to 72 hrs by MTT assay; format: functional, cell-based
MEASURED ENDPOINT: pIC50
// pIC50: -log10(molar conc.)

Problem: Which pIC50 is reported for this compound? CCCCCCCCCCCCCCCC(=O)OCC(CO[C@H]1O[C@H](CS(=O)(=O)O)[C@@H](O)[C@H](O)[C@H]1O)OC(=O)CCCCCCCCCCCCCCC (stereo partly specified)
Solution: 5.08
